meta.source: patent EP4755885A1

Assay: Pharmacokinetic evaluation in beagles, oral administration
Type: in vivo
Conditions: dog, po, p.o. 2 mg/kg, plasma, read-out: Cmax
Experimental: Beagles were used as test animals to study the pharmacokinetic behavior of the compound of the present invention, administered orally at a dose of 2 mg/kg, in beagles (plasma). Beagles, 3 per group, male. […] Single PK: The compound of the present invention was weighed into a 100 mL glass bottle, and the solution was added. The pH was first adjusted with 1 M NaOH until the compound dissolves to obtain a clear solution, and then the pH was readjusted to pH 9.0-9.5 with 1 M HCl. […]
measurement kind: Cmax (µg/mL)
Answer in µg/mL, number only, no unit symbol.

For orientation, consider the following solved cases.
[2H]C([2H])(OC1CC1)[C@H]1C[C@]1(c1noc(=O)[nH]1)n1c(C(=O)N2CCc3nn(-c4cc(C)c(F)c(C)c4)c(-n4ccn(-c5ccc6c(cnn6C6CC6)c5F)c4=O)c3[C@@H]2C)cc2cc([C@H]3CCOC(C)(C)C3)ccc21 = 5.83
[2H]C([2H])([2H])n1nc2c3c(c(-n4ccn(-c5c6c(nn5-c5cc(C)c(F)c(C)c5)CCN(C(=O)c5cc7cc([C@H]8CCOC(C)(C)C8)ccc7n5[C@@]5(c7noc(=O)[nH]7)C[C@@H]5C#C)[C@H]6C)c4=O)ccc31)OCCC2 = 1.88
Cc1cc(-n2nc3c(c2-n2ccn(-c4cc5c6c(c4)CCC(=O)N6CCC5)c2=O)[C@H](C)N(C(=O)c2cc4cc([C@H]5CCOC(C)(C)C5)ccc4n2[C@@]2(c4noc(=O)[nH]4)C[C@@H]2C)CC3)cc(C)c1F = 1.33

We next turn to a different compound, shown below.
Could you tell me which Cmax is on file for CC#C[C@H]1C[C@]1(c1noc(=O)[nH]1)n1c(C(=O)N2CCc3nn(-c4cc(C)c(F)c(C)c4)c(-n4ccn(-c5ccc6c(cnn6C6CC6)c5F)c4=O)c3[C@@H]2C)cc2cc([C@H]3CCOC(C)(C)C3)ccc21 ?
2.47

---

experiment: Pharmacokinetic evaluation in beagles, oral administration; assay type: in vivo; conditions: dog, po, p.o. 2 mg/kg, plasma
measurement kind: half-life (h)
Answer in h, number only, no unit symbol.

[2H]C([2H])([2H])n1nc2c3c(c(-n4ccn(-c5c6c(nn5-c5cc(C)c(F)c(C)c5)CCN(C(=O)c5cc7cc([C@H]8CCOC(C)(C)C8)ccc7n5[C@@]5(c7noc(=O)[nH]7)C[C@@H]5C#C)[C@H]6C)c4=O)ccc31)OCCC2 = 3.7
Cc1cc(-n2nc3c(c2-n2ccn(-c4ccc5c(cnn5C5CC5)c4F)c2=O)[C@H](C)N(C(=O)c2cc4cc([C@H]5CCOC(C)(C)C5)ccc4n2[C@@]2(c4noc(=O)[nH]4)C[C@@H]2COC2CC2)CC3)cc(C)c1F = 4.2
CC#C[C@H]1C[C@]1(c1noc(=O)[nH]1)n1c(C(=O)N2CCc3nn(-c4cc(C)c(F)c(C)c4)c(-n4ccn(-c5ccc6c(cnn6C6CC6)c5F)c4=O)c3[C@@H]2C)cc2cc([C@H]3CCOC(C)(C)C3)ccc21 = 5.8
Cc1cc(-n2nc3c(c2-n2ccn(-c4ccc5c(cnn5C5CC5)c4F)c2=O)[C@H](C)N(C(=O)c2cc4cc([C@H]5CCOC(C)(C)C5)ccc4n2[C@@]2(c4noc(=O)[nH]4)[C@@H]4COC[C@@H]42)CC3)cc(C)c1F = 5.9

We next turn to a different compound, shown below.
Could you tell me which half-life is on file for Cc1cc(-n2nc3c(c2-n2ccn(-c4cc5c6c(c4)CCC(=O)N6CCC5)c2=O)[C@H](C)N(C(=O)c2cc4cc([C@H]5CCOC(C)(C)C5)ccc4n2[C@@]2(c4noc(=O)[nH]4)C[C@@H]2C)CC3)cc(C)c1F ?
5.1
